test system: T cells from Bax/Bak-deficient mice (Bax/Bak KO); test: in vitro apoptosis assay, Bax/Bak-deficient murine T cells; type: cell-based, mouse; conditions: Mus musculus, T-cell; Bax/Bak-deficient T cells, 24 hours, trypan blue live/dead count; read-out: EC50 of cell death
experimental_endpoint: EC50

Sample CCN(CC)CC(O)CNc1ccc(C)c2sc3ccccc3c(=O)c12 (stereo not shown) [Compound 1.001] , system: T cells from Bax/Bak-deficient mice (Bax/Bak KO). Its EC50 is 20 to 30 µM

---

Entries and their ΔTm at 100 µM
target: BCL2A1 (purified A1) (Mus musculus (Mouse), UniProt Q07440); assay: differential scanning fluorimetry (DSF) thermal shift assay; assay type: binding, murine; conditions: 100 μM compound, 4.4 μM A1, triplicate; read-out: Average Tm Shift
Sequence (Q07440 whole entry): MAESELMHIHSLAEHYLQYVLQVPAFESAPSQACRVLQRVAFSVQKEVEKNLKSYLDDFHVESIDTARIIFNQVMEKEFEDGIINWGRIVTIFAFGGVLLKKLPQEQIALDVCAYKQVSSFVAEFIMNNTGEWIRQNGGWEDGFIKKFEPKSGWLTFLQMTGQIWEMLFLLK
I'd appreciate it if you wrote the number followed by its unit.

compound: CCN(CC)CCNc1ccc(C)c2sc3ccccc3c(=O)c12
ΔTm at 100 µM: 38.8 °C
//
compound: Cc1ccc(NCCNCC(O)CO)c2c(=O)c3ccccc3sc12 (stereo not drawn)
ΔTm at 100 µM: -0.6 °C
//
compound: O=C(COc1c(Cl)cc(Cl)c2ccccc12)NC1c2ccccc2Oc2ccccc21
ΔTm at 100 µM: 19.2 °C
//
compound: CCN(CC)CC(O)CNc1ccc(C)c2sc3ccccc3c(=O)c12 (stereo not drawn)
ΔTm at 100 µM: 0.49 °C

Looking up `CCN(CCNc1ccc(C)c2sc3ccccc3c(=O)c12)CC(C)(C)O` , I found its ΔTm at 100 µM recorded as -1.43 °C

Looking up `Cc1ccc(NCCNCC(C)(C)O)c2c(=O)c3ccccc3sc12` , I found its ΔTm at 100 µM recorded as -0.85 °C

---

target: BCL2A1 (A1) (Mus musculus (Mouse), UniProt Q07440); experiment: dose-response fluorescence polarization (FP) assay, displacement of FITC-labeled mNOXA peptide; format: binding, murine; settings: 3 μM A1, 375 nM FITC-labeled mNOXA, overnight 20° C., triplicate
Sequence (Q07440 whole entry): as above
Lab note: anything with IC50 below 100 µM is marked satisfied; values at 100 µM or higher are marked not satisfied.

# input Is the reported IC50 for `CCN(CC)CCNc1ccc(C)c2sc3ccccc3c(=O)c12` strictly below 100 µM?
# output satisfied

# input Is the reported IC50 for `O=C(COc1c(Cl)cc(Cl)c2ccccc12)NC1c2ccccc2Oc2ccccc21` strictly below 100 µM?
# output satisfied

# input Is the reported IC50 for CCN(CC)CC(O)CNc1ccc(C)c2sc3ccccc3c(=O)c12 (centres unmarked) strictly below 100 µM?
# output satisfied

# input Is the reported IC50 for `Cc1ccc(NCCNCC(C)(C)O)c2c(=O)c3ccccc3sc12` strictly below 100 µM?
# output not satisfied

---

target: BCL2A1 (A1) (Mus musculus (Mouse), UniProt Q07440); assay: single high-dose fluorescence polarization (FP) assay, BCL2A1-NOXA interaction; type: binding, murine; settings: 100 μM compound, 3 μM A1, 375 nM labeled mNOXA
Entries and their % Bound Noxa (from high-dose FP)
Please state the figure in %; there is no need to write the unit.

Please review the following examples before continuing.
compound: CCN(CC)CC(O)CNc1ccc(C)c2sc3ccccc3c(=O)c12 (centres unmarked)
% Bound Noxa (from high-dose FP) / %: 41.48

compound: O=C(COc1c(Cl)cc(Cl)c2ccccc12)NC1c2ccccc2Oc2ccccc21
% Bound Noxa (from high-dose FP) / %: 70.39

compound: Cc1ccc(NC(=O)c2cc3ccccc3c(N=Nc3cc(S(=O)(=O)O)ccc3O)c2O)c(C)c1 [REF 2, reference compound]
% Bound Noxa (from high-dose FP) / %: 1.2

compound: CCN(CCNc1ccc(C)c2sc3ccccc3c(=O)c12)CC(C)(C)O
% Bound Noxa (from high-dose FP) / %: 51.13

# context switch: different compound, same % Bound Noxa (from high-dose FP)
Sample `CCN(CC)CCNc1ccc(C)c2sc3ccccc3c(=O)c12` , system: BCL2A1 (A1) (Mus musculus (Mouse), UniProt Q07440). Its % Bound Noxa (from high-dose FP) is 4.5
